Target: AxlA (Aspergillus niger)
Sequence (A2QTU5 19-736): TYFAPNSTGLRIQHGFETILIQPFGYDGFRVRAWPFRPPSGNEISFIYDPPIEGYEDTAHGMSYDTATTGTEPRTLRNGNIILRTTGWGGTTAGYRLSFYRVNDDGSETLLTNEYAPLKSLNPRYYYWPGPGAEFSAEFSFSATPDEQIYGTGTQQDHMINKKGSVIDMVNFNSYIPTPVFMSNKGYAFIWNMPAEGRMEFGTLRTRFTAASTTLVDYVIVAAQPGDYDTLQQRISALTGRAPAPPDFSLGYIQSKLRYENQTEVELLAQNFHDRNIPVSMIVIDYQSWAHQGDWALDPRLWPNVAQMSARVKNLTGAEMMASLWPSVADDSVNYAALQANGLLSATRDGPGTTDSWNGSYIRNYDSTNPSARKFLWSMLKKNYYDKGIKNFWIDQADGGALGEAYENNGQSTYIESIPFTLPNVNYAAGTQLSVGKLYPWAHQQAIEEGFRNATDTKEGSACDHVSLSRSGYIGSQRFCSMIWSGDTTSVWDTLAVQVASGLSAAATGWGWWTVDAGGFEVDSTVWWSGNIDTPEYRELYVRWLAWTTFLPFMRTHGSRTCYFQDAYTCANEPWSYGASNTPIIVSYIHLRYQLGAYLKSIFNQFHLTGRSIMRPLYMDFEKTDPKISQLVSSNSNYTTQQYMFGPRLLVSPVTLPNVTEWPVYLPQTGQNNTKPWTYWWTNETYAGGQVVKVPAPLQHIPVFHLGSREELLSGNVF
MEASURE NAME: pKi
Reminder that pKi is minus the log10 of a molar concentration.

# input Can you look up the measured pKi of OC1OC[C@@H](O)[C@H](O)[C@H]1O (stereo partly shown) for me?
# output 1.86
